Below, each of the sequences is paired with its reported apparent KD of MS2 coat protein value.
- System: MS2 coat protein
- EXPERIMENTAL PROTOCOL: apparent KD of MS2 coat protein; designed switch direction (-1 OFF switch, 1 ON switch): -1; higher = weaker reporter binding
- EXPERIMENTAL CONDITIONS: Eterna round: R95; input ligand: microRNA oligo, concentration not stated
Give the quantity in nM, number only.

| INPUT SEQUENCE | apparent KD of MS2 coat protein (nM) |
| --- | --- |
| UUCUUACAUGAGGAUCACCCAUGUCAGGAUAUCUCCACACUGCGCUUGCGCAGUGUAUAGAGAAGGGACAGGCU [JL ViennaUCT Aner mod 5] (puzzle: Exclusion 1) | 40.7 |
| GUAGGGUCAGGAUAUACUGGCUGAGGGAUGUAUUGUAGUUGGUAGAAGGGACAUGAGGAUCACCCAUGUAAGUA [JR_Exclu4_Sub057] (puzzle: Exclusion 4) | 33.2 |
| GGUACUAACACGAUAGUGUUAGUACUAUAAGCUUGUGUUACAUGAGGAUCACCCAUGUCCUCAUAGGCUCGUCUUAG [Mat - Sensor v3 - Turn-off var 2 - D85] (puzzle: Sensor v3, turn-off variant 2) | 23.1 |
| UCAUGUUAGCAGGAUAUGCUAUUUAUCUUUUAUGCAGAAGGGCUUACAUGAGGAUCACCCAUGUAUUAAGUCUU [JR_E6_Sub075] (puzzle: Exclusion 6) | 18 |
| AGUAACCGUCACGAAAGUGAUGGUUACACAAGCAAAUGUACAUGAGGAUCACCCAUGUCCUCAUUUGCUCGUCUUGU [Sensor 3 - 48] (puzzle: Sensor v3, turn-off variant 2) | 398 |
| UAGGUACAUGAGGAUCACCCAUGUGAGGAUAUAGAGGAAGAUUGCGAGAGGGAGAGGACUAGAAGGCACAGUGG [JR_Exclu1_Sub035] (puzzle: Exclusion 1) | 28.1 |
| GUACAGGUAGGAUAUCGAUACAAGAACAUGAGGAUCACCCAUGUGGGUCGAUUUUCGAAGCGAGAAGGACCAAAUG [Rixeatenso] (puzzle: Exclusion 5) | 132 |
| ACUAGAUGAGGAUAUGCAUAUUUUCGUGUUCUUCUAGGUUAACAUGAGGAUCACCCAUGUAGAAGGCGUCUAUG [Exclusion 2 - 24] (puzzle: Exclusion 2) | 19.3 |
| GAAGAAGAGAGAAAAGAAAACAUGAGGAUCACCCAUGUGAGAAGAUGAGGGUGUAGCAGGCUUUAUGCUCGUCUUAU (puzzle: Sensor v3, turn-off variant 1) | 78.5 |
| GAGAACGUAGGAUAUACAUGAGGAUCACCCAUGUGAGGAAGGAGUAGGAAGAGUGGAAGUAGAAGGACGGAGAG [JR_Exclu3_Sub072] (puzzle: Exclusion 3) | 21.9 |

Next up:
Exercise: Which apparent KD of MS2 coat protein value belongs to GUAUGUUAUGAGGAUAUCGGUGAACAUACACAUCGAGAAGGCAUGACAUGAGGAUCACCCAUGUCAAGGAUGAC [Exclusion 6 - B - 18:d] (puzzle: Exclusion 6) ?
Key: 24.9

====

- System: MS2 coat protein
- EXPERIMENTAL PROTOCOL: apparent KD of MS2 coat protein; higher = weaker reporter binding
- EXPERIMENTAL CONDITIONS: Eterna round: R107; input ligand: arginine 13.2 mM
Below, each of the sequences is paired with its reported apparent KD of MS2 coat protein value.
Give the quantity in nM, number only.

Consider the reported apparent KD of MS2 coat protein for these sequences:
| INPUT SEQUENCE | ASSAYED SYSTEM | QUANTITATIVE RESULT |
| --- | --- | --- |
| AUACGUAACAGAAGGAGCGCACCGACAUGAGGAUCACCCAUGUGGGAUGGGACUCUUUUGGUGCAGGUAGGUCGCUGUCACGCAU [Beatattian] | MS2 coat protein | 23.7 |
| GCUUGGGUGGCACGGCCCUGGCGGUGCGAUACCAGCACGGUAACGUGCCCUUGGCAGCGCACAUGAGGAUCACCCAUGUGGUGCG [#1 Exclusion - Theophylline A Attempt #24 (HarryS)] | MS2 coat protein | 13.1 |
| ACCAGCACACAUGAUACCAGCGACAUGAGGAUCACCCAUGUACGGCGUGUAUCGAAAGGUUGCCCUUGGCAGCAUGAUAGUGCUA [Ratiarla] | MS2 coat protein | 14.5 |
| ACAUGUCUUAUAGAUACCAGACAGGACAUGAGGAUCACCCAUGUAAUGUAUACAUGCAGAGUCCCUUGGCAGCUAAGGUCAUAGA [#26 Same State - Theophylline B] | MS2 coat protein | 54.6 |

Next up:
Exercise: Which apparent KD of MS2 coat protein value belongs to ACCUAAGCCACAGAUACCAGAGUAAUAGGCCAAUUUCAAAACAUGAGGAUCACCCAUGUACUCCCUUGGCAGCUGCGAAUCGAAA [theeternabot_exclusion_MS2_Theo_B_30] ?
Key: 11.1

====

- Tested on: MS2 coat protein
- EXPERIMENTAL PROTOCOL: apparent KD of MS2 coat protein; designed switch direction (-1 OFF switch, 1 ON switch): -1; higher = weaker reporter binding
- EXPERIMENTAL CONDITIONS: input ligand: none
Below, each of the sequences is paired with its reported apparent KD of MS2 coat protein value.
Give the quantity in nM, number only.

Consider the reported apparent KD of MS2 coat protein for these sequences:
| INPUT SEQUENCE | QUANTITATIVE RESULT |
| --- | --- |
| AAAUCACAUGAGGAUCACCCAUGUGAGGAUAUGAUACUAUGUACUUCGGUACAUAGUAUCAGAAGGCAUGUGGA [Ex1-3: 89] (Eterna round: R96, puzzle: Exclusion 1) | 29.5 |
| AUAUAGAUGGUCAGGAUAUGCUAGUGAUAACAGUAGCAGAAGGGACAUGAGGAUCACCCAUGUGGAUACCGCAC [Brourd's EX4 #7] (Eterna round: R97, puzzle: Brourd's mod of Exclusion 4) | 31.9 |
| CUGAUGUGAGGAUAUCUACGCCAAGUGUUUCACUUGGCGCAAGAGAAGGCACAUGAGGAUCACCCAUGUACUUC [jl-ex4-4.37 ViennaUCT mod] (Eterna round: R97, puzzle: Exclusion 4) | 22.8 |
| UGGGUCACAGGAUAUACAUGAGGAUCACCCAUGUCGUAUUUCGUGGCGGAGAGCUCGAGUAGAAGGGUGCAUCC [Malarala] (Eterna round: R96, puzzle: Exclusion 3) | 148 |
| UUAAAUCAUGUAGGAUAUGCGUGGGAAAACUAUGCAGAAGGACAUGAGGAUCACCCAUGUGCUUCCGUCUGAGAACAGACGGUA [Mat - Exclusion NG 1 - Mod of JL - D15] (Eterna round: R96, puzzle: Exclusion NG 1) | 87.8 |
| ACGCCACAUGAGGAUCACCCAUGUGAGGAUAUGGCCUGUUUGGCGUGUGCUGGCUCUGUCAGAAGGCGCGUGGG [salish99_ex1_r4_039] (Eterna round: R97, puzzle: Exclusion 1) | 42.3 |
| GAUUAGCAAGCGAGAUCCCACAUGAGGAUCACCCAUGUGCUCGUCUUAUAAAGUACUGUGACGAAAGUCACGGUACA [Mat - Sensor, turn-off var - Eli Mod - D11] (Eterna round: R97, puzzle: Sensor, turn-off variant 1) | 14.8 |
| GGUCCGAGUGUGAGGAUAUGCUGGUCCUUGGAUCAGCAGAAGGCACAUGAGGAUCACCCAUGUGAAGACGGACC [Mat - Exclusion 4 - Eli Mod - D30] (Eterna round: R97, puzzle: Brourd's mod of Exclusion 4) | 91.5 |

Exercise: Which apparent KD of MS2 coat protein value belongs to ACAAGCUUUUAGAUUUUCAACAUGAGGAUCACCCAUGUUCGUCUUAGGCGAGUGCGAGUGCGGUGUACUCGUAUUAG [JL TOV1 3.85 sellena mod] (Eterna round: R97, puzzle: Sensor, turn-off variant 1) ?
Key: 21.9

====

Below, each of the sequences is paired with its reported apparent KD of K4 kissing-loop reporter value.
- Tested on: K4 kissing-loop RNA reporter;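 also: bound reporter read as fluorescence of individual clusters on recovered sequencing chips by microscopy, with normalized cluster intensities fitted with a binding model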
- EXPERIMENTAL PROTOCOL: apparent KD of K4 kissing-loop reporter; higher = weaker reporter binding
- EXPERIMENTAL CONDITIONS: Eterna round: R107; input ligand: none
Give the quantity in nM, number only.

Consider the reported apparent KD of K4 kissing-loop reporter for these sequences:
| INPUT SEQUENCE | apparent KD of K4 kissing-loop reporter [nM] |
| --- | --- |
| UCGGAGGGAGCGGCCGCCACUGUAUUACCUCGACGAACGCCGGUUUUCAUGAAGUGAUGUUUCGCCAGGACCGGGCUAAUCUGAG [theeternabot_exclusion_KL_Trp_B_46] | 235 |
| GGUUCCUCAGUGAUGUUGAGGUGACCUCGGCAGGAUAUAGGCAUUACUAGAAGGGCCAAAUGAACCCUGUCCAGCGGCACAGGGA [Arleorbile] | 331 |

Exercise: Which apparent KD of K4 kissing-loop reporter value belongs to AGCGAGUGAUGUUCGCUGAUCAUGAGAAGUUAGGAUAUAUACUUGCAUAGAAGGAACUAUUUCAUGACAUUAGAGGCAGUAGUUC [FMN A SS t7] ?
Key: 158
